# test.summary: in vitro
# conditions: dog, MDCK-MDR1
property: Papp

[Q] # query: Papp of entry OC[C@@H](O)[C@@H](O)[C@H](O)[C@H](O)CO [[^14C]mannitol, mannitol, reference compound]
[A] < 0.2 ×10⁻⁶ cm/s

Where do the numbers come from? From patent US20070142302A1.
